assay_method_text: small molecules captured by biotinylated probe aFST – biochemical, small-molecule microarray, fluorescence 635/667, stem cell growth factor project, primary screen (AID 1086);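 note: score merges 667 nm fluorescence with signal-to-noise of each printed compound spot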
experimental_parameters: higher = more signal
measured_attribute: composite z-score
Output spec: single numeric token, no unit.

Reference set (7 entries):
compound=O=C(O)[C@H](Cc1ccccc1)n1cc(-c2ccccc2)nn1 experimental_result=0.328
compound="O=C1C2C=CC(C(O)c3ccc(-c4ccccc4)s3)N(Nc3ccccc3)C2C(=O)N1c1ccccc1 (stereo not drawn)" experimental_result=1.62
compound=[N-]=[N+]=Nc1ccccc1[C@H]1OC(c2ccc(OCCCO)cc2)=N[C@@]1(Cc1ccccc1)C(=O)N1CCOCC1 experimental_result=1.52
compound=COC(=O)C(CC#Cc1ccc2c(c1)[C@]1(C(=O)N2)[C@H](c2ccc(O)cc2)N2[C@H](c3ccccc3)[C@H](c3ccccc3)OC(=O)[C@H]2[C@@H]1C(=O)N1CCN(c2ncccn2)CC1)C(=O)OC experimental_result=0.599
compound=COC(=O)[C@@]1(Cc2ccc(OC)cc2)[C@H]2c3cc(C(=O)N4CCCC4)n(Cc4nc5ccccc5[nH]4)c3C[C@H]2CN1C(=O)c1ccccc1 experimental_result=1.65
compound=C#CCN1[C@@H](Cc2ccc(O)cc2)C(=O)O[C@H](Cc2ccccc2)[C@@H]1/C=C/C1CC1 experimental_result=0.0959
compound=COC(=O)c1c2oc(c1C(=O)OC)C(=O)N[C@@H](C(C)C)Cn1cc(nn1)C1(CCCCC1)NC(=O)N[C@H](CO)CC2 experimental_result=-0.0464

Would you kindly look at the next entry?
# get_value(readout='composite z-score', item= COC(=O)[C@@]1(Cc2ccccc2)[C@H]2c3cc(C(=O)N4CCCC4)n(Cc4ccc(O)c(OC)c4)c3C[C@H]2CN1C(=O)c1ccccc1 )
1.04

###

assay_method_text: small molecules captured by biotinylated probe aFGF2 – biochemical, small-molecule microarray, fluorescence 635/667, stem cell growth factor project, primary screen (AID 1067);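 note: measures binding of biotinylated aFGF2 protein to printed compounds on slides; z-score merges feature fluorescence and signal-to-noise across triplicate slides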
experimental_parameters: higher = more signal
Where composite z-score equals or exceeds -0.03, the correct label is 1.0; where it does not, the label is 0.0.

compound="Cc1ccc(C2C3C(=O)CC4C(=O)N(c5ccccc5)C(=O)C4C3CN2S(=O)(=O)c2ccc(C)cc2)cc1 (stereo unspecified)" class_name=1.0
compound=CCCCCCc1nc(-c2ccc(-c3ccc(Cl)c(Cl)c3)o2)cc2c1[Si](C(C)C)(C(C)C)O[C@H]2c1ccccc1 class_name=0.0
compound="CCCCC(O)C1C=CC2C(=O)N(C)C(=O)C2N1N1CCCCC1 (stereo unspecified)" class_name=1.0

State whether the measured composite z-score reaches -0.03, counting equality as reaching it, for O=C1OCC=C[C@H]2OC34C=CCN(Cn5nnc6ccccc65)C(=O)[C@H]3N(CCCCCO)C(=O)[C@@H]4[C@@H]12 (stereo partly specified)
1.0

Check this compound for composite z-score at or above -0.03: O=C1C[C@@](C(=O)NCc2ccccc2)(c2ccc([N+](=O)[O-])cc2)[C@@H](c2ccc(CO)cc2)N1CC12CC3CC(CC(C3)C1)C2
1.0

Please check the record C=CCN(Cc1ccccc1)C(=O)C(c1cccs1)N(C(=O)/C=C\C(=O)O)c1ccc(CCOCCO)cc1 (stereo unspecified) and state if its composite z-score is at or above -0.03.
0.0

Kindly determine if composite z-score recorded for CN1C(=O)C2C=CC(C(O)c3c(F)cccc3Cl)N(NC(=O)OC(C)(C)C)C2C1=O (stereo unspecified) is above or exactly -0.03.
1.0

Is composite z-score for CN1CCC(CCCO)=CC1c1cccs1 (stereo unspecified) at or above -0.03?
0.0

Can Cc1ccc(S(=O)(=O)N2C[C@@H](C(=O)O)[C@H](Sc3ccccc3)C[C@H]2c2ccccc2)cc1 be said to have composite z-score at or above -0.03?
1.0

Confirm if composite z-score reported for the compound O=C1OCCC/C=C\[C@H]2OC34C=CCN(c5ccc6ccccc6c5)C(=O)[C@H]3N(CCCCCO)C(=O)[C@@H]4C12 (stereo partly specified) is -0.03 or above.
0.0

API: above_or_equal(metric=composite z-score, cutoff=-0.03) for item C=CCNC(=O)[C@H]1[C@@H]2C(=O)O[C@@H](c3ccccc3)[C@@H](c3ccccc3)N2[C@@H](c2ccc(O)cc2)[C@]12C(=O)Nc1ccc(C#CCCO)cc12
0.0

Is it the case that COc1ccc([Si](C)(C)[C@@H]2[C@@H](CC(=O)N3Cc4ccccc4C[C@H]3CO)O[C@]3(C(=O)N(Cc4cccc(N5CCC5=O)c4)c4ccccc43)[C@H]2C)cc1 has composite z-score reaching or exceeding -0.03?
0.0

Is reported composite z-score greater than or equal to -0.03 here: COCCCNC(=O)[C@]1(Cc2ccccc2)N=C(c2ccc(OCCCO)cc2)O[C@@H]1c1ccccc1CN=[N+]=[N-]
1.0

Does composite z-score meet or surpass -0.03 for C=CC[C@]1(C(=O)N2CCOCC2)N=C(c2ccc(OCCCO)cc2)O[C@H]1c1ccccc1N=[N+]=[N-] ?
1.0

Given the entry C=CCC(OC(C)=O)[C@@H]1[C@@H](N(Cc2ccc(-c3cccc(C(F)(F)F)c3)o2)C(=O)Cc2ccc(OC)cc2)c2cc(OCCCO)ccc2N1C(=O)c1ccc2ccccc2c1 (stereo partly specified) , answer whether its composite z-score meets or surpasses -0.03.
0.0

All figures here come from PubChem BioAssay.
